tested on: HepG2; test: Antiproliferative activity against human HepG2 cells assessed as inhibition of cell growth; format: functional, cell-based
property-measured: IC50

| smiles-structure | endpoint-result |
| --- | --- |
| N#Cc1c(-c2cn(-c3ccccc3)nc2-c2cc3ccccc3o2)[nH]c(NN)nc1=O | 12.5 µM |

* * *

test system: PC-3; assay: Antiproliferative activity against human PC-3 cells assessed as inhibition of cell proliferation by MTT assay; format: functional, cell-based
property-measured: IC50 (µM)

| compound | target-under-test | bound-type | endpoint-result |
| --- | --- | --- | --- |
| CC1(C)CCC[C@](C)([C@@H]2CC[C@]3(C)[C@@H]2[C@H](O)CC2[C@@]4(C)CC[C@H](OC(=O)CSc5nc(-c6ccc(Br)cc6)c(C#N)c(=O)[nH]5)C(C)(C)[C@@H]4CC[C@]23C)O1 (some centres undefined) | PC-3 | = | 9.72 |
| CC1(C)CCC[C@](C)([C@@H]2CC[C@]3(C)[C@@H]2[C@H](O)C[C@H]2[C@@]4(C)CC[C@H](OC(=O)CSc5nc(-c6ccncc6)c(C#N)c(=O)[nH]5)C(C)(C)[C@@H]4CC[C@]23C)O1 | PC-3 | = | 15.8 |
| CC1(C)CCC[C@](C)([C@@H]2CC[C@]3(C)[C@@H]2[C@H](O)CC2[C@@]4(C)CC[C@H](OC(=O)CSc5nc(-c6cccc(F)c6)c(C#N)c(=O)[nH]5)C(C)(C)[C@@H]4CC[C@]23C)O1 (some centres undefined) | PC-3 | = | 8.19 |
| CC1(C)CCC[C@](C)([C@@H]2CC[C@]3(C)[C@@H]2[C@H](O)C[C@H]2[C@@]4(C)CC[C@H](OC(=O)CSc5nc6cc(Cl)ccc6c(=O)[nH]5)C(C)(C)[C@@H]4CC[C@]23C)O1 | PC-3 | > | 100 |
| Cc1ccc2nc(SCC(=O)O[C@H]3CC[C@@]4(C)[C@@H](CC[C@]5(C)[C@H]4C[C@@H](O)[C@@H]4[C@H]([C@@]6(C)CCCC(C)(C)O6)CC[C@]45C)C3(C)C)[nH]c(=O)c2c1 | PC-3 | > | 100 |
| CC1(C)CCC[C@](C)([C@@H]2CC[C@]3(C)[C@@H]2[C@H](O)CC2[C@@]4(C)CC[C@H](OC(=O)CSc5nc(-c6cccc(Cl)c6)c(C#N)c(=O)[nH]5)C(C)(C)[C@@H]4CC[C@]23C)O1 (some centres undefined) | PC-3 | = | 8.44 |
| CC1(C)CCC[C@](C)([C@@H]2CC[C@]3(C)[C@@H]2[C@H](O)C[C@H]2[C@@]4(C)CC[C@H](OC(=O)CSc5nc6c(Cl)cccc6c(=O)[nH]5)C(C)(C)[C@@H]4CC[C@]23C)O1 | PC-3 | = | 62.3 |
| CC1(C)CCC[C@](C)([C@@H]2CC[C@]3(C)[C@@H]2[C@H](O)CC2[C@@]4(C)CC[C@H](OC(=O)CSc5nc(-c6ccc(Cl)cc6)c(C#N)c(=O)[nH]5)C(C)(C)[C@@H]4CC[C@]23C)O1 (some centres undefined) | PC-3 | = | 7.42 |
| COc1cc(-c2nc(SCC(=O)O[C@H]3CC[C@@]4(C)[C@@H](CC[C@]5(C)[C@H]4C[C@@H](O)[C@@H]4C([C@@]6(C)CCCC(C)(C)O6)CC[C@]45C)C3(C)C)[nH]c(=O)c2C#N)cc(OC)c1OC (some centres undefined) | PC-3 | = | 13.3 |
